biological target: Rap guanine nucleotide exchange factor 4 (Homo sapiens); experiment: Confirmatory qHTS for antagonist of cAMP-regulated guanine nucleotide exchange factor 4 (EPAC2) (AID 1645885); conditions: EPAC2 Rap1B-BODIPY-GDP exchange fluorescence, biochemical; series mostly up to 12.7 µM; also: nearly all actives have a fitted effect of over 25% in size
Results filed as inconclusive are left out. Calls of active or inactive are those of the source. Calls follow the shape of the dose curve; as a rule, active = well fitted inhibition curve with a large enough effect; inconclusive = small, poorly fitted or top-dose-only effect; inactive = no such curve, though single readings can be large or run the other way.
Pick from active, inactive when you respond.

## Input What classification did CC(=O)c1ccc(NC(=O)CSc2nc(Nc3ccccc3)nc(N3CCOCC3)n2)cc1 end up with in this test?
## Output inactive

## Input Hey, what did the test say about C=CCn1c(C)cc(C(=O)Cn2ncc(Cl)c(Cl)c2=O)c1C ?
## Output inactive

## Input What call does the record list for Cc1ccc2nc3sc(C(=O)NCc4ccco4)c(N)c3cc2c1 ?
## Output inactive

## Input Which result was noted for this compound in the test: O=C(Nc1ccccn1)c1cccc(S(=O)(=O)N2CCc3ccccc3C2)c1
## Output inactive

## Input // return assay outcome for Cc1ccccc1S(=O)(=O)N1C(c2ccc(Cl)c(Cl)c2)CC=C(C(=O)O)C1c1cccc(Br)c1 (stereo not given)
## Output inactive

## Input What classification did CN(C)CCNC(=O)c1cccc(-c2cnc3c(NC=O)cc(-c4cccc(C(F)(F)F)c4)cn23)c1 end up with in this test?
## Output inactive

## Input Answer briefly: the call reported for COC(=O)c1sc(-c2ccccc2)cc1NC(C)=O in this assay.
## Output inactive

## Input Tell me the assay call for CC(C)c1ccc(NS(=O)(=O)c2cn(C)c(=O)n(C)c2=O)cc1 please.
## Output active

## Input // outcome(item) with item = O=C(O)c1ccccc1N/N=C/C1=C(N2CCOCC2)C(=C\c2ccccc2)/CC1
## Output inactive

## Input Each compound tested received a call. Report the one for CN(C)S(=O)(=O)c1cccc(-c2nn(-c3ccccc3)cc2/C=C2\SC(=S)NC2=O)c1 .
## Output active

---

tested on: CP203; test: qHTS profiling for inhibitors of Plasmodium falciparum proliferation (AID 504749); also: nearly all actives have a fitted effect of over 60% in size; conditions: P. falciparum in erythrocytes, SYBR Green DNA, 72 h; series mostly up to 12.8 µM
Records with an inconclusive call do not appear. Calls of active or inactive are those of the source. Calls come from the whole dose curve; as a rule, active = well fitted inhibition curve with a large enough effect; inconclusive = small, poorly fitted or top-dose-only effect; inactive = flat fitted curve, though single readings scatter.
Quantity Measured: outcome

# count of solved cases: 8
molecule="OCC1OC([S-])[C@H](O)C(O)C1O.[Au+] (some centres undefined)" quantity_measured=outcome result=inactive
molecule=C[C@@H]1C[C@H]2[C@@H]3C[C@H](F)C4=CC(=O)C=C[C@@]4(C)[C@]3(F)[C@H](O)C[C@]2(C)[C@@]1(O)C(=O)CO quantity_measured=outcome result=inactive
molecule="CC(=O)N[C@@H]1C(O)OC(CO)C(O)C1O (some centres undefined)" quantity_measured=outcome result=inactive
molecule=CCC(=O)[C@@]1(C)[C@H](C)C[C@@H]2[C@@H]3CCC4=CC(=O)C=C[C@@]4(C)[C@H]3[C@H](O)C[C@]21C quantity_measured=outcome result=inactive
molecule=O=C(OC[C@@H](O)CO)c1ccccc1Nc1ccnc2cc(Cl)ccc12 quantity_measured=outcome result=inactive
molecule=NS(=O)(=O)c1cc2c(cc1C(F)(F)F)N[C@H](Cc1ccccc1)NS2(=O)=O quantity_measured=outcome result=inactive
molecule="COc1ccc2cc(C(C)CO)ccc2c1 (centres undefined)" quantity_measured=outcome result=inactive
molecule=CO[C@H]1[C@@H](OC(N)=O)[C@H](O)[C@@H](Oc2ccc3c(O)c(NC(=O)c4ccc(O)c(CC=C(C)C)c4)c(=O)oc3c2C)OC1(C)C quantity_measured=outcome result=inactive

Now for a further molecule.
get_value(item= CCN(CC)CCOC(=O)[C@@H](Cc1cccc2ccccc12)C[C@@H]1CCCO1 , readout=outcome) returns inactive

---

Target: N-terminal Xaa-Pro-Lys N-methyltransferase 1 (Homo sapiens)
Experiment: Confirmatory qHTS for Inhibitors of N-terminal methyltransferase 1 (NTMT1): MTaseGlo Assay (AID 1645874); also: nearly all actives have a fitted effect of over 65% in size
Conditions: NTMT1 enzyme, MTase-Glo SAH luminescence; series mostly up to 100 µM
Source text: Assay Submitter (PI): Rong Huang Ph.D. Purdue University, West Lafayette, IN 47907 The N-terminal methytransferase 1 is the first methyltransferase that methylates protein alpha-N-amines and plays an important role in regulating cell mitosis, chromatin interactions and DNA repair. […] To address this unmet need, a panel of assay is created and established to enable quantitative high-throughput screening (qHTS) for novel, potent, and selective small molecule NTMT1 inhibitors. […]
Results filed as inconclusive are left out. Calls of active or inactive are those of the source. Calls come from the whole dose curve; as a rule, active = well fitted inhibition curve with a large enough effect; inconclusive = small, poorly fitted or top-dose-only effect; inactive = no such curve, though single readings can be large or run the other way.
Classes to choose from: TRUE for active, FALSE for inactive

## Input What is the recorded call for this molecule in the test? COc1cc2nc(Nc3ccc(C)c(C)c3)nc(N)c2cc1OC
## Output TRUE

## Input Record request — test call for Oc1cccc(Nc2nc(-c3ccccc3)nc3ccccc23)c1
## Output TRUE

## Input Recorded test outcome, item Cc1cc(C)n2c(Nc3c(C)cccc3C)c(-c3ccsc3)nc2n1
## Output FALSE

## Input Record lookup: outcome of this test for Cc1ccc(S(=O)(=O)Nc2cnccc2C(=O)Nc2nc(-c3cccc(C)c3)cs2)cc1 ?
## Output TRUE

## Input Would you mind telling me which call this test gave c1csc(-c2nc3ccccn3c2Nc2ccc3c(c2)OCCO3)c1 ?
## Output TRUE

## Input What classification did Fc1cc(Nc2nc(-c3ccncc3)nc3ccccc23)ccc1N1CCNCC1 end up with in this test?
## Output TRUE

## Input // outcome(item) with item = O=C(Nc1onc2c1CCCC2)c1ccccc1
## Output FALSE

## Input Returns: the outcome recorded for COc1cc2c(NC3CCN(CC4CCCCC4)CC3)nc(N3CCCN(C)CC3)nc2cc1OCCCN1CCCCC1 in this assay.
## Output TRUE

## Input What did the test return for O=C(Nc1nc2c(s1)CCCC2)c1ccccc1F ?
## Output TRUE

## Input How did this test come out for Cc1ccc2nc(-c3ccc(O)cc3)c(Nc3ccc(Cl)cc3)n2c1 ?
## Output FALSE

## Input Answer briefly: the call reported for CCCn1c(/C=C/c2ccccc2)nc2ccccc21 in this assay.
## Output FALSE

## Input Could you please tell me the result logged for COc1cc2nc(N3CCCC3)nc(NC3CC3)c2cc1OC in this assay?
## Output TRUE

## Input Which outcome was assigned to Cc1cccc(C(=O)Nc2sc3c(c2C(=O)O)CCCC3)c1 in this test?
## Output TRUE

## Input Name the outcome recorded for O=c1c2cc3c(cc2nc2sc(Nc4ccccc4)nn12)OCO3 in the assay.
## Output FALSE

## Input For COc1ccc(C(=O)Nc2onc3c2CCCC3)cc1 , which call appears in the assay record?
## Output FALSE

## Input Short answer needed: outcome of this test for O=C(Nc1cccc(Cl)c1)c1c(NC(=O)C(F)(F)F)sc2c1CCCC2 ?
## Output TRUE

## Input Outcome? COc1cc(-c2nc3ccc(Cl)cn3c2Nc2ccc3c(c2)OCO3)ccc1O
## Output TRUE

## Input Can you look up the reported call for COCCCNC(=O)CSc1c2c(nc3ccc(Cl)cc13)CCCC2 for me?
## Output FALSE

## Input Entry Cc1cc(F)ccc1S(=O)(=O)Nc1cnccc1C(=O)Nc1nc(-c2ccccc2)cs1 : call = ?
## Output TRUE

## Input Hello, I am checking results. What call was entered for S=C(Nc1ccccn1)c1ccccn1 ?
## Output TRUE

## Input Assay outcome for Cc1ccc(/C=C/c2nc3ccccc3[nH]2)cc1 : what was it?
## Output TRUE

## Input # fetch the recorded call for Cc1cccc(-n2cnc3cc(C(=O)NC4CCCC4)ccc32)c1 here
## Output TRUE

## Input For Cc1ccc(-n2ncc3c(NCCO)ncnc32)cc1Cl , which call appears in the assay record?
## Output TRUE

## Input Just curious, what result did COc1cc2c(NC3CCN(C(C)C)CC3)nc(N3CCCN(CC4CCCCC4)CC3)nc2cc1OCCCN1CCCC1 get here?
## Output TRUE

## Input So what was the verdict on Clc1cccc(-c2nc3ccccn3c2Nc2ccc3c(c2)OCCO3)c1 in this test?
## Output TRUE

---

system: DFO2036; test: qHTS profiling for inhibitors of Plasmodium falciparum proliferation (AID 504749); also: nearly all actives have a fitted effect of over 60% in size; conditions: P. falciparum in erythrocytes, SYBR Green DNA, 72 h; series mostly up to 12.8 µM
Inconclusive results are not listed. Activity calls are given as the source filed them. The call rests on the fitted dose curve; in most records, active means well fitted inhibition curve with a large enough effect; inconclusive means small, poorly fitted or top-dose-only effect; inactive means flat fitted curve, though single readings scatter. Peptide text beside a SMILES is read from it.
Valid outcomes are listed here; reply with one: active, inactive

## Input For COC(=O)C(Cc1ccccc1)NC(=O)C(N)CC(=O)O (stereo not drawn) (H-Asp-Phe-OMe; configuration not given here) , which call appears in the assay record?
## Output inactive

## Input What is the recorded call for this molecule in the test? CCCCC[C@H](O)/C=C\[C@@H]1[C@H](O)CC(=O)[C@@H]1CCCCCCC(=O)O
## Output inactive

## Input Test call for this molecule, please: COc1ccc(OC)c([C@H](O)CNC(=O)CN)c1
## Output inactive

## Input Can you look up the reported call for CCC(=O)[C@@]1(C)[C@H](C)C[C@@H]2[C@@H]3CCC4=CC(=O)C=C[C@@]4(C)[C@H]3[C@H](O)C[C@]21C for me?
## Output inactive

## Input Dear colleague, could you share the recorded outcome for C[N+]12CCC(CC1)[C@@H](OC(=O)C(O)(c1ccccc1)c1ccccc1)C2 when you have a moment?
## Output inactive

## Input What call does the record list for COc1ccc(CC(N)C(=O)NC2C(CO)OC(n3cnc4c(N(C)C)ncnc43)C2O)cc1 (centres undefined) ?
## Output active

## Input Which outcome was assigned to CC(=O)OC1CCC2C3CCc4cc(O)ccc4C3CCC12C (centres undefined) in this test?
## Output inactive

## Input Recorded call for COCC(=O)Nc1c(I)c(C(=O)NC[C@@H](O)CO)c(I)c(C(=O)N(C)C[C@@H](O)CO)c1I ?
## Output inactive

## Input State the result this test recorded for COc1cc(C2c3cc4c(cc3C(O[C@@H]3OC5COC(c6cccs6)OC5C(O)C3O)C3COC(=O)C23)OCO4)cc(OC)c1O (some centres undefined) .
## Output active

## Input I'd appreciate the recorded outcome for NC(CCC(=O)N[C@@H](CS)C(=O)NCC(=O)O)C(=O)O (some centres undefined) from this test.
## Output active

## Input Hey, what did the test say about C[C@H](O)Cn1cnc2c1c(=O)n(C)c(=O)n2C ?
## Output inactive

## Input Give the logged outcome of this assay for the following molecule: CC1(C)[C@@H](OC(=O)CCC(=O)O)CC[C@@]2(C)[C@H]1CC[C@@]1(C)[C@H]2C(=O)C=C2[C@H]3C[C@](C)(C(=O)O)CC[C@]3(C)CC[C@@]21C
## Output inactive

## Input Tell me the recorded outcome of this test for C[C@@]12CCC(=O)C=C1C=CC1C2CC[C@]2(C)C1CC[C@@]21CCC(=O)O1 (some centres undefined) .
## Output inactive

## Input GET /call?item= CC(C)C1CCC(C(=O)NC(Cc2ccccc2)C(=O)O)CC1 (centres undefined) returns the recorded outcome of this test.
## Output inactive

## Input What outcome does the record of this test show for CN(C)CCCOC1C(C(O)CO)OC2OC(C)(C)O[C@@H]21 (some centres undefined) ?
## Output inactive

## Input In this assay, the call recorded for OCC1O[C@H](OC2C(CO)O[C@@](O)(CO)C2O)C(O)C(O)C1O (some centres undefined) was what?
## Output inactive

## Input Assay outcome for CC(=C(CCOP(=O)(O)O)SC(=O)c1ccccc1)N(C=O)Cc1cnc(C)nc1N : what was it?
## Output inactive

## Input In this assay, the call recorded for CC(=O)O[C@]1(C(C)=O)CC[C@@H]2[C@@H]3C=C(C)C4=CC(=O)CC[C@@]4(C)[C@H]3CC[C@]21C was what?
## Output inactive

## Input # fetch the recorded call for COC(=O)C1=C(C)NC(C)=C(C(=O)OC(C)C)[C@H]1c1cccc2nonc12 here
## Output inactive

Recorded values, source PubChem BioAssay (NCATS).
